test system: DU-4475; test: drug sensitivity score (DSS), CellTox Green (DSS (AUC-based score)); higher = stronger drug effect (viability inhibition or cytotoxicity); extreme values may be limits of the assay; conditions: incubation time: 72 h
ASSAY_METRIC: drug sensitivity score

SMILES	TEST_SYSTEM	ASSAY_METRIC	TEST_VALUE
O=C(c1ccc(OCCN2CCCCC2)cc1)c1c(-c2ccc(O)cc2)sc2cc(O)ccc12	DU-4475	drug sensitivity score	0
FC(F)c1nc2ccccc2n1-c1nc(N2CCOCC2)nc(N2CCOCC2)n1	DU-4475	drug sensitivity score	0
CN1CCN(c2ccc3nc(-c4c(N)c5c(F)cccc5[nH]c4=O)[nH]c3c2)CC1	DU-4475	drug sensitivity score	0

The reported measurements were obtained from the supplement of paper PMC4862054.
